Target: T1, HLA-B*44:05 (human)
T1 construct: also called peptide-receptive MHC class I molecule
Assay: UV peptide exchange, anti-b2m ELISA
Record form. Attribute: peptide exchange yield. Fill in for each entry.

Please give the measured peptide exchange yield for this binder: `AESDFSNNML`
50 to 75%

Try this binder next: `RMLSFQQMTW`
20 to 50%

Try this binder next: `SEESAGPLL`
50 to 75%

Try this binder next: `VEVKYEGHW`
> 75%

Try this binder next: `VTEGAVEVKY`
10 to 20%

Try this binder next: `TEFSNHINL`
50 to 75%

Try this binder next: `KQWEYNEKLAF`
10 to 20%

Try this binder next: `VEEERYTGQW`
50 to 75%

Try this binder next: `EMPGGPVW`
50 to 75%

Try this binder next: `RELEEEFYSL`
50 to 75%

Try this binder next: `QEVAQVASAIL`
> 75%

Try this binder next: `AENRVGKMEA`
20 to 50%

Try this binder next: `GEDAHLTQY`
20 to 50%

Try this binder next: `DELMRKESQW`
50 to 75%

Try this binder next: `SETSTGTSV`
20 to 50%

Try this binder next: `AEIATTGQLY`
50 to 75%
